Tested on: differentiated SH-SY5Y cells
Assay: MTT cytotoxicity assay on differentiated SH-SY5Y cells
Format: cell-based, human
Settings: lowest observed adverse effect level, differentiated SH-SY5Y, 24 h, MTT
Record form. Attribute: LOAEL. Fill in for each entry.
State the value with its unit after it.

{"Molecule": "CCNC(C)C(=O)c1cccc(Cl)c1 (racemic)", "LOAEL": "0.5 mM"}
{"Molecule": "CNC(C)C(=O)c1ccc(C)cc1 (stereo not drawn) [Mephedrone (M), Mephedrone, reference compound]", "LOAEL": "0.5 mM"}
{"Molecule": "CCCCNC(C)C(=O)c1ccc(Cl)cc1 (racemic)", "LOAEL": "0.5 mM"}
{"Molecule": "CCNC(C)C(=O)c1ccccc1Cl (racemic)", "LOAEL": "0.5 mM"}

Below are some molecules; for each one, tell me its LOAEL.
1. CNC(C)C(=O)c1ccc(Cl)cc1 (racemic)
2. CC(C(=O)c1ccc(Cl)cc1)N1CCCC1 (racemic)
3. CCCCNC(C)C(=O)c1cccc(Cl)c1 (racemic)
4. CC(NC(C)(C)C)C(=O)c1cccc(Cl)c1 (racemic)
5. CC(NC(C)(C)C)C(=O)c1ccc(Cl)cc1 (racemic)
6. CC(C(=O)c1cccc(Cl)c1)N1CCCC1 (racemic)
7. CC(C(=O)c1ccccc1Cl)N1CCCC1 (racemic)

0.1 mM
0.5 mM
0.1 mM
0.5 mM
0.5 mM
0.1 mM
0.5 mM

Field: LOAEL (differentiated SH-SY5Y cells). Entry: CCNC(C)C(=O)c1ccc(Cl)cc1 (racemic)
0.1 mM

====

Test: MTT cytotoxicity assay on differentiated SH-SY5Y cells
Assay type: cell-based, human
Conditions: human, differentiated SH-SY5Y, 0.05–5 mM, MTT reduction assay, Hill fit, read-out: LC50
Rule: CC50 at 24 h below 1000 µM gives 1.0. Equal to or above 1000 µM gives 0.0.

Worked cases, answers included:
{"Compound": "CC(C(=O)c1ccc(Cl)cc1)N(C)C (racemic)", "Qualitative label": 0.0}
{"Compound": "CCCCNC(C)C(=O)c1ccc(Cl)cc1 (racemic)", "Qualitative label": 1.0}
{"Compound": "CNC(C)C(=O)c1ccc(Cl)cc1 (racemic)", "Qualitative label": 0.0}
{"Compound": "CCCCNC(C)C(=O)c1cccc(Cl)c1 (racemic)", "Qualitative label": 1.0}
{"Compound": "CCN(CC)C(C)C(=O)c1cccc(Cl)c1 (racemic)", "Qualitative label": 0.0}

Confirm or reject: CC50 at 24 h of CNC(C)C(=O)c1cccc(Cl)c1 (racemic) lies strictly below 1000 µM
0.0

Confirm or reject: CC50 at 24 h of CC(C(=O)c1ccccc1Cl)N(C)C (racemic) lies strictly below 1000 µM
0.0

Confirm or reject: CC50 at 24 h of CC(C(=O)c1ccc(Cl)cc1)N1CCCC1 (racemic) lies strictly below 1000 µM
0.0

Confirm or reject: CC50 at 24 h of CC(C)NC(C)C(=O)c1ccc(Cl)cc1 (racemic) lies strictly below 1000 µM
0.0

====

Biological target: Acetylcholinesterase (AChE, EC 3.1.1.7) (Electrophorus electricus, UniProt O42275)
Construct: purchased Sigma-Aldrich
Sequence (O42275 24-633): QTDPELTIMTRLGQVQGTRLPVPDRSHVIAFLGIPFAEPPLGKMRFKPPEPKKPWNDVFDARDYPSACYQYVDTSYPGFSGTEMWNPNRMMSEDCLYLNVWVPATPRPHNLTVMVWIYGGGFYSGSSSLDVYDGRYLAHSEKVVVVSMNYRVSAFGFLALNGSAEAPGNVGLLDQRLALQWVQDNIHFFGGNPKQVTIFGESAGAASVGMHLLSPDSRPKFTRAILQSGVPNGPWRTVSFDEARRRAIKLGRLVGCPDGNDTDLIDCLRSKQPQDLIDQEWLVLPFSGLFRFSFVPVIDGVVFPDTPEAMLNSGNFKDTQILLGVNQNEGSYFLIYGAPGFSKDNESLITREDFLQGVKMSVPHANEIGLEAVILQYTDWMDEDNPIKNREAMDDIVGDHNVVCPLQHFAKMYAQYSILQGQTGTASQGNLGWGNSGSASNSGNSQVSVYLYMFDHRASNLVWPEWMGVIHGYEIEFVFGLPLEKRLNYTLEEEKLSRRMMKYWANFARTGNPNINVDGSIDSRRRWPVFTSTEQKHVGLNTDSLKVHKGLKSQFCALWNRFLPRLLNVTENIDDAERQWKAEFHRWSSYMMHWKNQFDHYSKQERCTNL
Test: Acetylcholinesterase inhibition, modified Ellman colorimetric method
Assay type: biochemical
Settings: AChE inhibition, Ellman assay
Please use y whenever LOAEL is not below 0.2 mM, and n whenever it is.

{"Compound": "CCN(CC)C(C)C(=O)c1ccc(Cl)cc1 (racemic)", "Qualitative label": "n"}
{"Compound": "CC(NC(C)(C)C)C(=O)c1cccc(Cl)c1 (racemic)", "Qualitative label": "y"}
{"Compound": "CNC(C)C(=O)c1ccc(Cl)cc1 (racemic)", "Qualitative label": "y"}
{"Compound": "CCN(CC)C(C)C(=O)c1cccc(Cl)c1 (racemic)", "Qualitative label": "n"}
{"Compound": "CCCCNC(C)C(=O)c1ccc(Cl)cc1 (racemic)", "Qualitative label": "n"}
{"Compound": "CNC(C)C(=O)c1ccccc1Cl (racemic)", "Qualitative label": "y"}
{"Compound": "CC(C(=O)c1cccc(Cl)c1)N(C)C (racemic)", "Qualitative label": "y"}
{"Compound": "CNC(C)C(=O)c1cccc(Cl)c1 (racemic)", "Qualitative label": "y"}

Quick check, LOAEL >= 0.2 mM? CC(C(=O)c1ccccc1Cl)N(C)C (racemic)
y

Quick check, LOAEL >= 0.2 mM? CNC(C)C(=O)c1ccc(C)cc1 (stereo not shown) [Mephedrone (M), Mephedrone, reference compound]
y
